Data origin, for the record: patent US12077503B2

# System: redroot pigweed (Amaranthus retroflexus)
# assay-procedure: Test G Pre-Emergence Protocol
# Type: in vivo
# conditions: Amaranthus retroflexus, pre-emergence, 312 h, 62.5 g ai/ha, evaluated after 13 days, 100=total damage to plant, 0=no damage to plant, read-out: Pigweed, Redroot damage rating
measurement-label: pest or weed control at 62.5 g/ha (%)

INSERT INTO measurements (compound, measurement_label, reported_value) VALUES
  ('CN1C[C@H](c2cc(F)cc(F)c2)[C@@H](C(=O)Nc2cnccc2C(F)(F)F)C1=O (racemic) [Compound 1741]', 'pest or weed control at 62.5 g/ha', 20),
  ('CN1C[C@H](c2ccc(C(F)(F)F)cc2)[C@@H](C(=O)Nc2ccc[n+]([O-])c2C(F)(F)F)C1=O (racemic) [Compound 1813]', 'pest or weed control at 62.5 g/ha', 0),
  ('CN1C[C@@H](c2ccc(CO)cc2)[C@H](C(=O)Nc2cccc(F)c2F)C1=O (racemic) [Compound 1820]', 'pest or weed control at 62.5 g/ha', 0);

====

compounds and their reported Plant response rating, Foxtail, Giant
# Test system: giant foxtail (Setaria faberii)
# assay-procedure: Test A postemergence
# Type: in vivo
# conditions: Postemergence, 500 g ai/ha; 0 to 100 scale where 0 is no effect and 100 is complete control
measurement-label: Plant response rating, Foxtail, Giant

INSERT INTO results (compound, measurement_label, reported_value) VALUES
  ('COc1c(F)ccc(NC(=O)C2C(=O)NCC2c2cccc(OC(F)(F)C(F)F)c2)c1F (racemic)', 'Plant response rating, Foxtail, Giant', 90),
  ('O=C(Nc1cccc(F)c1F)C1C(=O)N(C2C=CCCC2)CC1c1cccc(C(F)(F)F)c1 (centres unmarked)', 'Plant response rating, Foxtail, Giant', 60),
  ('O=C1NCC(c2ccc(C(F)(F)F)c(F)c2)C1C(=O)Nc1cccc(F)c1F (racemic)', 'Plant response rating, Foxtail, Giant', 90),
  ('COCc1cccc(C2CNC(=O)C2C(=O)Nc2ccccc2F)c1 (centres unmarked)', 'Plant response rating, Foxtail, Giant', 50),
  ('O=C1NCC(c2cc(C(F)(F)F)cc(C(F)(F)F)c2)C1C(=O)Nc1cccc(F)c1F (centres unmarked)', 'Plant response rating, Foxtail, Giant', 80),
  ('O=C1NCC(c2cccc(C(F)(F)F)c2F)C1C(=O)Nc1ccc(F)cc1F (centres unmarked)', 'Plant response rating, Foxtail, Giant', 90),
  ('O=C1NCC(c2ccc(C(F)(F)F)cc2F)C1C(=O)Nc1cccc(F)c1F (centres unmarked)', 'Plant response rating, Foxtail, Giant', 90),
  ('CCc1ccc(C2CNC(=O)C2C(=O)Nc2cccc(F)c2F)cc1 (centres unmarked)', 'Plant response rating, Foxtail, Giant', 80);

====

Recorded plant injury at 250 g/ha for the following compounds
# Tested on: corn (Zea mays)
# assay-procedure: Test G Pre-Emergence Protocol
# Format: in vivo
# conditions: Zea mays, pre-emergence, 312 h, 250 g ai/ha, evaluated after 13 days, read-out: Corn damage rating (100=total damage to plant; 0=no damage to plant)
measurement-label: plant injury at 250 g/ha (%)

INSERT INTO assay_data (compound, measurement_label, units, reported_value) VALUES
  ('CN1C[C@@H](c2ccc(C(F)(F)F)nc2)[C@H](C(=O)Nc2ccccc2S(C)(=O)=O)C1=O (racemic)', 'plant injury at 250 g/ha', '%', 30),
  ('CN1C[C@@H](c2ccc(C(F)(F)F)cc2)[C@H](C(=O)Nc2ccon2)C1=O (racemic)', 'plant injury at 250 g/ha', '%', 0),
  ('CN1C[C@@H](c2ccc(C(F)(F)F)cc2)[C@H](C(=O)Nc2ccc(C#N)cc2Cl)C1=O (racemic)', 'plant injury at 250 g/ha', '%', 0),
  ('CN1C[C@@H](c2ccc(C(F)(F)F)cc2)[C@H](C(=O)Nc2ncc(Cl)s2)C1=O (racemic)', 'plant injury at 250 g/ha', '%', 0),
  ('COc1cc(OC(F)(F)F)cc(C2CN(C)C(=O)C2C(=O)Nc2cccc(F)c2F)c1 (stereo not shown)', 'plant injury at 250 g/ha', '%', 50),
  ('CN1C[C@H](c2ccc(C(F)(F)F)cc2)[C@@H](C(=O)Nc2ncc(F)cc2F)C1=O (racemic)', 'plant injury at 250 g/ha', '%', 0),
  ('CN1C[C@H](c2ccc(C(F)(F)F)cc2)[C@@H](C(=O)Nc2cccc(F)n2)C1=O (racemic)', 'plant injury at 250 g/ha', '%', 70);
